Where do the numbers come from? From ChEMBL document CHEMBL1765069.

- Target entity: Cannabinoid receptor 2 (Homo sapiens)
- Sequence (P34972 whole entry): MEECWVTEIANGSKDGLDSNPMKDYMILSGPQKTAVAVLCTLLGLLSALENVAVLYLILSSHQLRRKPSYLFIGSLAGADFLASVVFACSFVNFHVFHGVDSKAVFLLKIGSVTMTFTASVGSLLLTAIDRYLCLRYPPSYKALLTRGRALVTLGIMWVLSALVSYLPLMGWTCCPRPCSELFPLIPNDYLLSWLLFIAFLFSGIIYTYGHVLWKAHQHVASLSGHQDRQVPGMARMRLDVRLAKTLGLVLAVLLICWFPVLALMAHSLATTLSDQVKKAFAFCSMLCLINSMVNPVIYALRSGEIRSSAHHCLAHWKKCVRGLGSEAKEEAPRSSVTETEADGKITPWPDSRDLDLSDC
- Protocol summary: Agonist activity at human CB2 receptor expressed in CHOK1 cells assessed as inhibition of forskolin-induced cAMP production treated 15 mins before forskolin challenge measured after 1 hr by HTRF assay relative to control
- Assay type: functional, cell-based
- Experimental setup: CHO-K1
Record form. Attribute: Emax. Fill in for each entry.
# do not omit the unit; it follows the number

These solved cases illustrate the format of a correct answer.
Molecule | Emax
COc1ccc([C@@]2(O)CCN(C(=O)c3ccccc3)[C@H]3CCCC[C@@H]32)cc1 | 66%
O=C(c1csc(-c2ccncc2)n1)N1CCC(O)(c2ccccc2)[C@@H]2CCCC[C@@H]21 (single isomer, unassigned; form 4) | 19%
CN1CC(C(=O)N2CC[C@@](O)(c3ccccc3)[C@@H]3CCCC[C@@H]32)CCC1=O (mixture of isomers) | 99%
O=C(c1nnc[nH]1)N1CC[C@@](O)(c2ccccc2)[C@@H]2CCCC[C@@H]21 (racemic) | 101%
O=C(c1cnc2ccccc2c1)N1CC[C@@](O)(c2ccccc2)[C@@H]2CCCC[C@@H]21 (racemic) | 96%

Consider the following items and state reported Emax for each.
1. O=C(c1ccc(Cl)cc1)N1CC[C@](O)(c2ccccc2)[C@H]2CCCC[C@@H]21
2. O=C(c1cccc2[nH]cnc12)N1CC[C@@](O)(c2ccccc2)[C@@H]2CCCC[C@@H]21 (racemic)
3. CS(=O)(=O)c1cccc([C@@]2(O)CCN(C(=O)c3ccccc3)[C@H]3CCCC[C@@H]32)c1
4. O=C(c1cn(CC(F)(F)F)cn1)N1CC[C@@](O)(c2ccccc2)[C@@H]2CCCC[C@@H]21 (racemic)
5. O=C(c1ccccc1)N1CC[C@](O)(c2cccnc2)[C@H]2CCCC[C@@H]21
6. O=C(c1ccncc1F)N1CC[C@@](O)(c2ccccc2)[C@@H]2CCCC[C@@H]21 (racemic)
7. CN1CCC(C(=O)N2CC[C@@](O)(c3ccccc3)[C@@H]3CCCC[C@@H]32)CC1 (racemic)

1. 90%
2. 101%
3. 52%
4. 104%
5. 86%
6. 99%
7. 98%

Report Emax for each item below.
1. O=C(c1ncccn1)N1CC[C@@](O)(c2ccccc2)[C@@H]2CCCC[C@@H]21 (racemic)
2. O=C(c1cnco1)N1CC[C@@](O)(c2ccccc2)[C@@H]2CCCC[C@@H]21 (racemic)
3. O=C(c1ccc2ccccc2n1)N1CC[C@](O)(c2ccccc2)[C@H]2CCCC[C@H]21
4. Cc1ccc(C(=O)N2CC[C@@](O)(c3ccccc3)[C@@H]3CCCC[C@@H]32)cn1

["101%", "98%", "98%", "103%"]

For each of the items listed, what is its Emax?
1. O=C(c1cccc2[nH]ncc12)N1CCC(O)(c2ccccc2)[C@@H]2CCCC[C@@H]21 (single isomer, unassigned)
2. Cn1ccnc1C(=O)N1CC[C@@](O)(c2ccccc2)[C@@H]2CCCC[C@@H]21 (racemic)

1. 100%
2. 100%
